- Tested on: HCT116
- PROTOCOL_CONDITIONS: 72 h; ICRF193 0 nM
QUANTITY_MEASURED: IC50 cell viability (µM)

>>> df
                                   compound  numeric_result
0                N=C(N)N/N=C/c1c(Cl)cccc1Cl            23.1
1  OCCN1CCN(CC/C=C2/c3ccccc3Sc3ccc(C(F)(F)F)cc32)CC1 [cis-Flupentixol]            25.9

###

- Tested on: HCT116
- PROTOCOL_CONDITIONS: 72 h; ICRF193 0 nM
QUANTITY_MEASURED: IC50 cell viability

                              compound   result
0  CN(C)CC/C=C1/c2ccccc2Sc2ccc(Cl)cc21  16.4 µM

Please look at this compound and report its IC50 cell viability: CCC(c1ccccc1)c1c(O)c2ccccc2oc1=O (centres undefined)
> 45.8 µM

Please look at this compound and report its IC50 cell viability: Cc1c(C)c2c(c(C)c1O)CCC(C)(COc1ccc(CC3SC(=O)NC3=O)cc1)O2 (centres undefined)
> 45.8 µM

Please look at this compound and report its IC50 cell viability: CCCc1nc2c(C)cc(-c3nc4ccccc4n3C)cc2n1Cc1ccc(-c2ccccc2C(=O)O)cc1
> 45.8 µM

###

- Test system: HCT116
- PROTOCOL_CONDITIONS: 72 h; ICRF193 200 nM
Each entry below carries its reported IC50 cell viability.

SMILES_REPR	TARGET_OF_ASSAY	IC50 cell viability
CCCN1C[C@H](C)[C@@H](O)[C@](C)(O)[C@@H](CC)OC(=O)[C@H](C)[C@@H](O[C@H]2C[C@@](C)(OC)[C@@H](O)[C@H](C)O2)[C@H](C)[C@@H](O[C@@H]2O[C@H](C)C[C@H](N(C)C)[C@H]2O)[C@](C)(O)C[C@H]1C	HCT116	> 45.8 µM
C[C@@](Cc1ccc(O)c(O)c1)(NN)C(=O)O	HCT116	> 45.8 µM

# context switch: different compound, same IC50 cell viability
Please look at this compound and report its IC50 cell viability: COc1nc(N)nc2c1ncn2[C@@H]1O[C@H](CO)[C@@H](O)[C@@H]1O
> 45.8 µM

###

- System: HCT116
- PROTOCOL_CONDITIONS: 72 h; ICRF193 200 nM
Where a name gives a salt, the structure may show the parent alone.
QUANTITY_MEASURED: IC50 cell viability

As a guide, the following entries are already answered.
COMPOUND	IC50 cell viability
[O-][n+]1ccccc1SSc1cccc[n+]1[O-]	1.27 µM
CCCCCCCCCCCCCCCCOP(=O)([O-])OCC[N+](C)(C)C	> 45.8 µM
O=C(O)c1ccccc1Nc1cccc(C(F)(F)F)c1	> 45.8 µM
OCCN1CCN(CCCN2c3ccccc3C=Cc3ccccc32)CC1 [Opipramol dihydrochloride]	> 45.8 µM
CC1(C)S[C@@H]2[C@H](NC(=O)[C@H](C(=O)O)c3ccsc3)C(=O)N2[C@H]1C(=O)O [Ticarcillin sodium]	> 45.8 µM

// fetch IC50 cell viability for COc1ccc2c(c1)OC(C)(C)C(c1ccccc1)C2c1ccc(OCCN2CCCC2)cc1 (stereo unspecified) ; system: HCT116
18.3 µM

// fetch IC50 cell viability for CC(=O)OCC1=C(C(=O)O)N2C(=O)[C@@H](NC(=O)[C@H](N)c3ccccc3)[C@H]2SC1 ; system: HCT116
6.51 µM

// fetch IC50 cell viability for CC(=O)Oc1cccc(O)c1 [Resorcinol monoacetate] ; system: HCT116
> 45.8 µM

// fetch IC50 cell viability for NS(=O)(=O)c1cc2c(cc1Cl)N=C(CSCc1ccccc1)NS2(=O)=O [Benzthiazide] ; system: HCT116
29.1 µM

// fetch IC50 cell viability for Cc1nc(Nc2ncc(C(=O)Nc3c(C)cccc3Cl)s2)cc(N2CCN(CCO)CC2)n1 ; system: HCT116
23.1 µM

// fetch IC50 cell viability for CCC1(CC)C(=O)NC(=O)N(C)C1=O ; system: HCT116
> 45.8 µM

// fetch IC50 cell viability for COc1cc2c(cc1OC)C1CC(=O)C(CC(C)C)CN1CC2 (stereo unspecified) [Tetrabenazine Mesylate] ; system: HCT116
> 45.8 µM

// fetch IC50 cell viability for COc1ncnc(NS(=O)(=O)c2ccc(N)cc2)c1OC ; system: HCT116
> 45.8 µM

// fetch IC50 cell viability for CC(C)Nc1cccnc1N1CCN(C(=O)c2cc3cc(NS(C)(=O)=O)ccc3[nH]2)CC1 ; system: HCT116
> 45.8 µM

// fetch IC50 cell viability for O=C(Oc1ccccc1C(=O)O)c1ccccc1O [Salsalate] ; system: HCT116
> 45.8 µM

// fetch IC50 cell viability for Cc1c2oc3c(C)ccc(C(=O)N[C@@H]4C(=O)N[C@H](C(C)C)C(=O)N5CCC[C@H]5C(=O)N(C)CC(=O)N(C)[C@@H](C(C)C)C(=O)O[C@@H]4C)c3nc-2c(C(=O)N[C@@H]2C(=O)N[C@H](C(C)C)C(=O)N3CCC[C@H]3C(=O)N(C)CC(=O)N(C)[C@@H](C(C)C)C(=O)O[C@@H]2C)c(N)c1=O ; system: HCT116
0.0206 µM

// fetch IC50 cell viability for CC(C)NC(C)Cc1ccc(I)cc1 (stereo unspecified) [Iofetamine hydrochloride] ; system: HCT116
> 45.8 µM

// fetch IC50 cell viability for C=CC[C@@H]1/C=C(\C)C[C@H](C)C[C@H](OC)[C@H]2O[C@@](O)(C(=O)C(=O)N3CCCC[C@H]3C(=O)O[C@H](/C(C)=C/[C@@H]3CC[C@@H](O)[C@H](OC)C3)[C@H](C)[C@@H](O)CC1=O)[C@H](C)C[C@@H]2OC ; system: HCT116
4.61 µM

// fetch IC50 cell viability for OCCN1CCN(CCCN2c3ccccc3Sc3ccc(Cl)cc32)CC1 ; system: HCT116
23.1 µM

// fetch IC50 cell viability for NCCCC[C@H](NC(=O)[C@@H]1CCCN1C(=O)[C@@H]1CSSC[C@H](N)C(=O)N[C@@H](Cc2ccccc2)C(=O)N[C@@H](Cc2ccccc2)C(=O)N[C@@H](CCC(N)=O)C(=O)N[C@@H](CC(N)=O)C(=O)N1)C(=O)NCC(N)=O ; system: HCT116
> 45.8 µM

// fetch IC50 cell viability for CCC1(c2cccc(O)c2)CCCCN(C)C1 (stereo unspecified) [Meptazinol hydrochloride] ; system: HCT116
> 45.8 µM

// fetch IC50 cell viability for O=c1[nH]cnc2c1ncn2[C@H]1CC[C@@H](CO)O1 ; system: HCT116
> 45.8 µM

// fetch IC50 cell viability for CNc1ncc(-c2ccc3c(=O)c(C(=O)O)cn(C4CC4)c3c2C)cc1C ; system: HCT116
> 45.8 µM

// fetch IC50 cell viability for C/C=C(/C)C(=O)O[C@H]1C(C)=C[C@]23C(=O)[C@@H](C=C(CO)[C@@H](O)[C@]12O)[C@H]1[C@@H](C[C@H]3C)C1(C)C [Ingenol mebutate] ; system: HCT116
23.1 µM

// fetch IC50 cell viability for CCOC(=O)NNc1nncc2ccccc12 [Todralazine hydrochloride] ; system: HCT116
> 45.8 µM

Attribution: the supplement of paper PMC12137928
